B1: CLCN6 (parent)
chain: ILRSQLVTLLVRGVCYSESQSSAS

Variants of: B1
measurement.protocol: protein stability index of a GFP-peptide fusion (GPS, HEK-293T) (PSI 1-6); higher = more stable;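 also: lentivirally expressed fusions sorted by FACS into six bins by GFP to DsRed ratio, PSI derived from sequencing read proportions per bin multiplied by bin number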
test.context: c terminus: a fixed tail appended
Each entry below lists one item and its recorded protein stability index value.
readout.kind: protein stability index

[[record]]
variant_description = "Q20A"
meas_value = 4.07

[[record]]
variant_description = "L9S"
meas_value = 1.6

[[record]]
variant_description = "Y16V"
meas_value = 2.94

[[record]]
variant_description = "C15R"
meas_value = 3.44

[[record]]
variant_description = "V14Q"
meas_value = 3.26

[[record]]
variant_description = "Q20F"
meas_value = 2.4

[[record]]
variant_description = "L10D"
meas_value = 1.8

[[record]]
variant_description = "C15K"
meas_value = 1.13

[[record]]
variant_description = "R3W"
meas_value = 3.08

[[record]]
variant_description = "S22R"
meas_value = 3.39

[[record]]
variant_description = "Q20C"
meas_value = 4.15

[[record]]
variant_description = "Q5A"
meas_value = 1.97

[[record]]
variant_description = "A23S"
meas_value = 2.38

[[record]]
variant_description = "V14W"
meas_value = 2.82

[[record]]
variant_description = "A23W"
meas_value = 4.14

[[record]]
variant_description = "E18G"
meas_value = 3.04

[[record]]
variant_description = "G13I"
meas_value = 2.7

[[record]]
variant_description = "V11T"
meas_value = 2.8

[[record]]
variant_description = "S17Y"
meas_value = 2.78

[[record]]
variant_description = "L2K"
meas_value = 2.42

[[record]]
variant_description = "L2C"
meas_value = 3.49

[[record]]
variant_description = "V7Y"
meas_value = 3.04

[[record]]
variant_description = "R12N"
meas_value = 1.67

[[record]]
variant_description = "G13N"
meas_value = 3.53

[[record]]
variant_description = "L10C"
meas_value = 2.21

[[record]]
variant_description = "L2Q"
meas_value = 2.62

[[record]]
variant_description = "Y16N"
meas_value = 2.37

[[record]]
variant_description = "L2P"
meas_value = 2.01

[[record]]
variant_description = "L9T"
meas_value = 2.92

[[record]]
variant_description = "V7I"
meas_value = 2.83

[[record]]
variant_description = "C15P"
meas_value = 2.23

[[record]]
variant_description = "I1W"
meas_value = 3.34

[[record]]
variant_description = "T8Y"
meas_value = 2.21

[[record]]
variant_description = "V11A"
meas_value = 2.77

[[record]]
variant_description = "S24G"
meas_value = 3.21

[[record]]
variant_description = "V7T"
meas_value = 2.46

[[record]]
variant_description = "E18P"
meas_value = 3.08

[[record]]
variant_description = "G13W"
meas_value = 1.7

[[record]]
variant_description = "L10R"
meas_value = 2.14

[[record]]
variant_description = "V11Q"
meas_value = 2

[[record]]
variant_description = "S4Y"
meas_value = 2.3

[[record]]
variant_description = "S22V"
meas_value = 2.66

[[record]]
variant_description = "L2M"
meas_value = 3.88

[[record]]
variant_description = "Q5W"
meas_value = 1.44

[[record]]
variant_description = "L2S"
meas_value = 3.23

[[record]]
variant_description = "S17Q"
meas_value = 1.98

